Tested on: A549, H1975, and PC9 cell lines
protocol_details: MTT antiproliferative assay, average of the three NSCLC cell lines
recorded_conditions: Homo sapiens, read-out: IC50 (µM) Average
assay_endpoint: IC50 (µM)

Examples from the recorded data:
>>> df
                                   molecule                     study_target  endpoint_value
0  COc1ccccc1NC(=O)CN1C(=O)NC(C)(c2ccccc2)C1=O (stereo not drawn)  A549, H1975, and PC9 cell lines            14.3
1  CC1(c2ccccc2)NC(=O)N(CC(=O)Nc2ccc(F)cc2)C1=O (stereo not drawn)  A549, H1975, and PC9 cell lines            6.35
2  COc1ccc(NC(=O)CN2C(=O)NC(C)(c3ccccc3)C2=O)cc1Cl (stereo not drawn)  A549, H1975, and PC9 cell lines              56
3  CC1(c2ccccc2)NC(=O)N(CC(=O)Nc2ccccc2F)C1=O (stereo not drawn)  A549, H1975, and PC9 cell lines            2.57

[I] COc1ccc(NC(=O)CN2C(=O)NC(C)(c3ccccc3)C2=O)c(C)c1 (stereo not drawn)
[II] COc1cccc(NC(=O)CN2C(=O)NC(C)(c3ccccc3)C2=O)c1 (stereo not drawn)
Between the two listed entries I and II , which has its IC50 at the higher number? Select an item and report its label.
I
(I: 15 µM, II: 8.7 µM)

###

study_target: EGFR^T790M (Homo sapiens, UniProt P00533, T790M)
Sequence (P00533 25-1210 T790M): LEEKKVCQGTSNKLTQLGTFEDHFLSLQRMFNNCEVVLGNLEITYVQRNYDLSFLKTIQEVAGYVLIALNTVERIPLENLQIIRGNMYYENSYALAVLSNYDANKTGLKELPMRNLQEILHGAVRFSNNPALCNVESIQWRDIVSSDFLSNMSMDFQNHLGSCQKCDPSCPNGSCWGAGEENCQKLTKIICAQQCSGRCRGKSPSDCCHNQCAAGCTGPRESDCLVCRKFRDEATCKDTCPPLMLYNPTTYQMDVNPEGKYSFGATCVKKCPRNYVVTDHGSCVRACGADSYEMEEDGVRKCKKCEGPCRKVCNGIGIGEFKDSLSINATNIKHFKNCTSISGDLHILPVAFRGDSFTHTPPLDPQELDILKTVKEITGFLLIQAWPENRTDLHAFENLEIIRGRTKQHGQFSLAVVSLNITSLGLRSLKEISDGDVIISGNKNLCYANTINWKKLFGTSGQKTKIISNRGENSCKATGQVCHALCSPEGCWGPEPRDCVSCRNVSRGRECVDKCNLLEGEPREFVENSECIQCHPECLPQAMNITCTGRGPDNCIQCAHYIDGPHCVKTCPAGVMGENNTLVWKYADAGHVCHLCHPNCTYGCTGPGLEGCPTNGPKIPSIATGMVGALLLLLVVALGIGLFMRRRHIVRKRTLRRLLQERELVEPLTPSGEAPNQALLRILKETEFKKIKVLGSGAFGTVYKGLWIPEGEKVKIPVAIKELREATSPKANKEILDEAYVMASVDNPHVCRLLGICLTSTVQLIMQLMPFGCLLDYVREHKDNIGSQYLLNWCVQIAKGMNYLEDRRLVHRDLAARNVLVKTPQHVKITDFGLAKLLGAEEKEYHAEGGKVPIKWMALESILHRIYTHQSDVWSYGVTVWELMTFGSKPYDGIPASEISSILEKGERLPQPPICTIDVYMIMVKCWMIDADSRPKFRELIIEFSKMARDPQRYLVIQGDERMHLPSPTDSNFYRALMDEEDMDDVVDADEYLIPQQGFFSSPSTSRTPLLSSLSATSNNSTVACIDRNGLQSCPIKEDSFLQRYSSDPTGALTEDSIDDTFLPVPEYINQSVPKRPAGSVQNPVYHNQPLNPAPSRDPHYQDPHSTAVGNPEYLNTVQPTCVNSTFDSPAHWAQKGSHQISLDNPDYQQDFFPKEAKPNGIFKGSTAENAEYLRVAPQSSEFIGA
protocol_details: EGFR kinase assay (T790M)
assay_endpoint: IC50 (nM)

[a] CC1(c2ccccc2)NC(=O)N(CC(=O)Nc2ccccc2F)C1=O (centres unmarked) [5f]
[b] COc1ccc(NC(=O)CN2C(=O)NC(C)(c3ccccc3)C2=O)cc1OC (centres unmarked) [5a]
// returns a or b , whichever has the lower IC50 Select an item and report its label.
b
(b: 90 nM, a: 260 nM)

###

Test system: ERK
protocol_details: ERK enzyme assay (ELISA) in A549 cells
Format: cell-based, human
recorded_conditions: read-out: Enzymatic Inhibition, IC50, (nM) ERK
assay_endpoint: IC50 (nM)

[A] C#Cc1cccc(Nc2ncnc3cc(OCCOC)c(OCCOC)cc23)c1 [Erlotinib, erlotinib, reference compound]
[B] COc1ccc(NC(=O)CN2C(=O)NC(C)(c3ccccc3)C2=O)cc1OC (centres unmarked)
Between the two listed entries A and B , which has its IC50 at the higher number? Select an item and report its label.
B

###

assay_endpoint: melting point

So what does the record say about melting point for COc1ccc(NC(=O)CN2C(=O)NC(C)(c3ccccc3)C2=O)cc1Cl (stereo not shown) ?
163 to 166 °C

Lookup CCOc1ccc(NC(=O)CN2C(=O)NC(C)(c3ccccc3)C2=O)cc1 (stereo not shown)
153 to 155 °C

Lookup CC1(c2ccccc2)NC(=O)N(CC(=O)Nc2ccccc2F)C1=O (stereo not shown)
153 to 155 °C

Lookup CC1(c2ccccc2)NC(=O)N(CC(=O)Nc2ccc(F)cc2)C1=O (stereo not shown)
226 to 228 °C

Lookup CC1(c2ccccc2)NC(=O)N(CC(=O)Nc2ccc(F)c(Cl)c2)C1=O (stereo not shown)
170 to 173 °C

###

System: Akt
protocol_details: Akt enzyme assay (Phospho-Ser473 ELISA) in A549 cells
Assay type: cell-based, human
recorded_conditions: read-out: Enzymatic Inhibition, IC50, (nM) Akt
assay_endpoint: IC50 (nM)

In [3]: df
Out[3]:
                                   compound  measurement_units  endpoint_value
0  C#Cc1cccc(Nc2ncnc3cc(OCCOC)c(OCCOC)cc23)c1 [Erlotinib, erlotinib, reference compound]                 nM            25.4
1  COc1ccc(NC(=O)CN2C(=O)NC(C)(c3ccccc3)C2=O)cc1OC (centres unmarked)                 nM            33.8
